Biological target: METTL3 R471H;METTL14 WT (Homo sapiens;Homo sapiens, UniProt Q86U44;Q9HCE5 1-580;1-456, R471H|)
Sequence (Q86U44 whole entry R471H, chain 1 of 2): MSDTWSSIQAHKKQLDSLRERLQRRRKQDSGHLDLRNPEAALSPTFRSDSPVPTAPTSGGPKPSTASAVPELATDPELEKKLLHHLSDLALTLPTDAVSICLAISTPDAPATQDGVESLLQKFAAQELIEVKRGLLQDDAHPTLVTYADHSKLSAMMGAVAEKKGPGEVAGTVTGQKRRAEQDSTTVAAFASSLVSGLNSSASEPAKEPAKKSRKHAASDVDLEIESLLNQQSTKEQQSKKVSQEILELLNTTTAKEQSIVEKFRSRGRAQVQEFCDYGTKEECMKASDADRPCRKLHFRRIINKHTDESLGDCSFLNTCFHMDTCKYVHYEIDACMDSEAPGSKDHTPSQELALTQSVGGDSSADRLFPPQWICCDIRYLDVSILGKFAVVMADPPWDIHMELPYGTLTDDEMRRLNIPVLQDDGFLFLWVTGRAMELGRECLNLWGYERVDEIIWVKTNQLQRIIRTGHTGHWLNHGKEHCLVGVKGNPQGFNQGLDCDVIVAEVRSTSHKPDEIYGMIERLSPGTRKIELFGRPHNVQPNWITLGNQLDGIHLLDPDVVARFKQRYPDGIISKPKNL
Sequence (Q9HCE5 whole entry, chain 2 of 2): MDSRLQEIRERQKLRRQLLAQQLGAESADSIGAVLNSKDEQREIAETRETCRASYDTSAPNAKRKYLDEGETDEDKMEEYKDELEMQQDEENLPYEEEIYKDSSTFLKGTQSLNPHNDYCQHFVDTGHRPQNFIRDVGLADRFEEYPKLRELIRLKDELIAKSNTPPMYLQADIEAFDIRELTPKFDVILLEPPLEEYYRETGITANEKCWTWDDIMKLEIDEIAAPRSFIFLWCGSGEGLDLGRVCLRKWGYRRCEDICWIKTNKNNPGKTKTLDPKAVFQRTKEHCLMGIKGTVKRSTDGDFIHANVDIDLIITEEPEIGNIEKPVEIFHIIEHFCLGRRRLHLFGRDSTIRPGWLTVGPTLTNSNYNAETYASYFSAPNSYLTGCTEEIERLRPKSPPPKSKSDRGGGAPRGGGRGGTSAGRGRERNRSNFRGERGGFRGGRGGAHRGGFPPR
Assay: SPR; two-state model; FP: 10 mM HEPES pH 7.5, 50 mM KCl, 5 nM RNA; SPR: 10 mM HEPES pH 7.5, 150 mM KCl, 0.05% P20, 25 C; 2-Ap: 50 mM Tris pH 8.0, 10 mM MgCl2, 0.5 uM RNA, read at 37
Settings: protein: recombinant;recombinant; tags: His-tag removed by TEV;; copies: 1;1; bulged stem-loop
OBSERVED_PROPERTY: pKd
# pKd is unitless: minus log10 of the molar concentration; print number only

                                     binder  result
0  GCCUAGUAGCAGAGAGGACUGCUCCUUGGU (structured_RNA, m6A at position 18) [rNEAT2-m6A (biotinyl)]    7.20

Consider the record given below.
Read off the recorded pKd for GCCUAGUAGCAGAGAGGACUGCUCCUUGGU (structured_RNA) [rNEAT2 (biotinyl)] 7.23
